# targetOfAssay: BRAF V600E (Homo sapiens, UniProt P15056, V600E)
# Construct: expressed in transfected cells
# Sequence (P15056 whole entry V600E): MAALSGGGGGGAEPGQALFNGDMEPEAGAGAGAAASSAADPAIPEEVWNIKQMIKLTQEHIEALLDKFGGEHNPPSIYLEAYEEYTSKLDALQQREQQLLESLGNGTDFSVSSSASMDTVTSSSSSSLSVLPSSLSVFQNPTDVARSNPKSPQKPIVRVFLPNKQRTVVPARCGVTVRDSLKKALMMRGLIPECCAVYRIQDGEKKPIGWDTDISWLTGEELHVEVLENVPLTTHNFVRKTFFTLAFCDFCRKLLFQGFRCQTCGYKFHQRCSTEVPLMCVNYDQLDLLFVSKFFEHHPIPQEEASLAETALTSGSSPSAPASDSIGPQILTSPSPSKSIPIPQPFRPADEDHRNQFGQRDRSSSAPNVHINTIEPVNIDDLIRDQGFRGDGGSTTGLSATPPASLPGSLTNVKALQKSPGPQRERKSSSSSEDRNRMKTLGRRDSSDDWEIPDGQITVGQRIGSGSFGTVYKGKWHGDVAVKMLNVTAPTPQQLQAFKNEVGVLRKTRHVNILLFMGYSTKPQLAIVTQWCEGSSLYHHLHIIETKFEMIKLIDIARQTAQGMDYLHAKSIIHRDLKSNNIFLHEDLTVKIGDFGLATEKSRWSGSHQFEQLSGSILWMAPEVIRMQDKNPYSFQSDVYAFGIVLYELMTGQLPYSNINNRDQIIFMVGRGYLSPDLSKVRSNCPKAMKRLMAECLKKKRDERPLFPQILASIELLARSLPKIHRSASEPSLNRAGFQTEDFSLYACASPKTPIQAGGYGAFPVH
# protocolNotes: Cellular assay of target protein degradation, T-Rex 293 cells stably transfected with HA-BRAF_V600E (HA immunofluorescence, high content imaging)
# Assay type: cell-based
# testConditions: half maximal degradation, T-Rex 293 HA-BRAF V600E; read-out: BRaf V600E DC50
measurementType: DC50

Example entries begin here.
>  <compound>
CCc1c(NS(=O)(=O)N2CC[C@@H](F)C2)ccc(F)c1C(=O)c1c[nH]c2ncc(-c3ccc(N4CCC(CN5CCC(c6ccc7c(c6)CN(C6CCC(=O)NC6=O)C7=O)CC5)CC4)cc3)cc12 (stereo partly drawn)

>  <targetOfAssay>
BRAF V600E (Homo sapiens, UniProt P15056, V600E)

>  <DC50>
< 5 nM

$$$$
>  <compound>
CCCS(=O)(=O)Nc1ccc(F)c(C(=O)c2c[nH]c3ncc(-c4ccc(N5CCC(CN6CCN(c7ccc8c(c7)CN([C@H]7CCC(=O)NC7=O)C8=O)CC6)CC5)cc4)cc23)c1F

>  <targetOfAssay>
BRAF V600E (Homo sapiens, UniProt P15056, V600E)

>  <DC50>
5 to 50 nM

$$$$
>  <compound>
O=C1CCC(N2Cc3cc(CN4CCN(c5ccc(-c6cnc7[nH]cc(C(=O)c8c(F)ccc(NS(=O)(=O)N9CC[C@@H](F)C9)c8F)c7c6)cc5)C[C@@H]4CO)ccc3C2=O)C(=O)N1 (stereo partly drawn)

>  <targetOfAssay>
BRAF V600E (Homo sapiens, UniProt P15056, V600E)

>  <DC50>
> 500 nM

$$$$
>  <compound>
O=C1CCC(N2Cc3cc(C4CCN(CCC5CN(c6ccc(-c7cnc8[nH]cc(C(=O)c9c(F)ccc(NS(=O)(=O)N%10CC[C@@H](F)C%10)c9F)c8c7)cc6)C5)CC4)ccc3C2=O)C(=O)N1 (stereo partly drawn)

>  <targetOfAssay>
BRAF V600E (Homo sapiens, UniProt P15056, V600E)

>  <DC50>
> 500 nM

$$$$
>  <compound>
O=C1CCC(N2Cc3cc(C4CCN(C[C@@H]5C[C@H]6CC[C@@H](C5)N6c5ccc(-c6cnc7[nH]cc(C(=O)c8c(F)ccc(NS(=O)(=O)N9CC[C@@H](F)C9)c8F)c7c6)cc5)CC4)ccc3C2=O)C(=O)N1 (stereo partly drawn)

>  <targetOfAssay>
BRAF V600E (Homo sapiens, UniProt P15056, V600E)

>  <DC50>
5 to 50 nM

$$$$
>  <compound>
O=C1CCC(N2Cc3cc(N4CC(CN5CCN(Cc6ncc(-c7cnc8[nH]cc(C(=O)c9c(F)ccc(NS(=O)(=O)N%10CC[C@@H](F)C%10)c9F)c8c7)cn6)CC5)C4)ccc3C2=O)C(=O)N1 (stereo partly drawn)

>  <targetOfAssay>
BRAF V600E (Homo sapiens, UniProt P15056, V600E)

>  <DC50>
50 to 500 nM

$$$$
>  <compound>
O=C1CC[C@@H](N2Cc3cc(C4CN(CC5CCN(c6ccc(-c7cnc8[nH]cc(C(=O)c9c(F)ccc(NS(=O)(=O)N%10CC[C@@H](F)C%10)c9F)c8c7)cc6)CC5)C4)ccc3C2=O)C(=O)N1

>  <targetOfAssay>
BRAF V600E (Homo sapiens, UniProt P15056, V600E)

>  <DC50>
5 to 50 nM

$$$$
>  <compound>
O=C1CC[C@@H](N2Cc3cc(N4CCC(CN5CCC6(CCN(c7ccc(-c8cnc9[nH]cc(C(=O)c%10c(F)ccc(NS(=O)(=O)N%11CC[C@@H](F)C%11)c%10F)c9c8)cc7F)CC6)C5)CC4)ccc3C2=O)C(=O)N1

>  <targetOfAssay>
BRAF V600E (Homo sapiens, UniProt P15056, V600E)

>  <DC50>
< 5 nM

$$$$

Proceeding to the next compound to report its DC50.
For record O=C1CC[C@H](N2Cc3cc(C4CCN(CC5CCN(c6ccc(-c7cnc8[nH]cc(C(=O)c9c(F)ccc(NS(=O)(=O)N%10CC(O)C%10)c9F)c8c7)cc6)CC5)CC4)ccc3C2=O)C(=O)N1 the listed DC50 is 5 to 50 nM
